Biological target: Saccharomyces cerevisiae α-glucosidase (E.C 3.2.1.20)
Assay: Alpha-glucosidase inhibition assay
Conditions: 0.2 U/mL enzyme, 5.0 mM pNPG, pH 6.9 sodium phosphate buffer, 37 °C, triplicate; read-out: Alpha-glucosidase inhibitory activity IC50
Reported pIC50 values for the following compounds.
Scale note: pIC50 = -log10(concentration in M).

Here is how some compounds turned out for pIC50.
CC1(C)C(=O)CC[C@@]2(C)[C@H]1CC[C@@]13C[C@H](CC[C@@H]12)[C@@](O)(CO)C3 [Compound 6, calliterpenone]: 3.81
CCOC(=O)CC[C@]1(C)[C@@H](C(C)(C)O)CC[C@@]23CC[C@@H](C[C@H]21)[C@](O)(CO)C3 (single isomer, unassigned; ent-3) [Compound 2]: 3.88
CC(=O)O[C@H]1CC[C@@]2(C)C3C[C@@H]4CC[C@@]3(CC[C@@H]2C1(C)C)C[C@@]4(O)CO (single isomer, unassigned; ent-3) [Compound 4, ent-3α-acetoxy-16β,17-dihydroxyatisane]: 3.99
CC1(C)C(O)CC(O)C2(C)C3CC4CCC3(CCC12)CC4(O)CO (single isomer, unassigned; ent-1) [Compound 1, ent-1α,3α,16β,17-tetrahydroxyatisane]: 3.90
CC1(C)OC[C@@]2(C[C@]34CC[C@H]2C[C@H]3[C@]2(C)CCC(=O)C(C)(C)[C@H]2CC4)O1 [Compound 3, ent-atisane-3-oxo-16β,17-acetonide]: 4.16

Below: the item to evaluate.
Given item CC(=O)OC1C(C)C(=O)C23CC(C)C(O)C2(C=C(C)C(O)C(O)C2C1C2(C)C)O3 (stereo not drawn) [Compound 7, ingol 12-acetate] , the value recorded as its pIC50 is 3.94

* * *

Biological target: alpha-glucosidase
Assay: Inhibitory type assay of 3 on alpha-glucosidase (Lineweaver–Burk plots, secondary plots)
Details: pNPG 1, 2, 4 mM; inhibitor 0, 13.8, 27.7, 55.5 µM; secondary plot of slope vs. inhibitor concentration; read-out: inhibition constant (Ki)
Assay endpoint: Ki (µM)
The reply should contain only the number, in µM.

Quick note, Ki for CC1(C)OC[C@@]2(C[C@]34CC[C@H]2C[C@H]3[C@]2(C)CCC(=O)C(C)(C)[C@H]2CC4)O1 [Compound 3, ent-atisane-3-oxo-16β,17-acetonide] landed at 65.8
